target: T1, TRCW5 antigen (CD3δε-Fc-Avi) (biotinylated (site not stated)); experiment: ELISA
T1 construct: also called recombinant CD3
T1 sequence (chain, as listed by the source mutant limits assumed): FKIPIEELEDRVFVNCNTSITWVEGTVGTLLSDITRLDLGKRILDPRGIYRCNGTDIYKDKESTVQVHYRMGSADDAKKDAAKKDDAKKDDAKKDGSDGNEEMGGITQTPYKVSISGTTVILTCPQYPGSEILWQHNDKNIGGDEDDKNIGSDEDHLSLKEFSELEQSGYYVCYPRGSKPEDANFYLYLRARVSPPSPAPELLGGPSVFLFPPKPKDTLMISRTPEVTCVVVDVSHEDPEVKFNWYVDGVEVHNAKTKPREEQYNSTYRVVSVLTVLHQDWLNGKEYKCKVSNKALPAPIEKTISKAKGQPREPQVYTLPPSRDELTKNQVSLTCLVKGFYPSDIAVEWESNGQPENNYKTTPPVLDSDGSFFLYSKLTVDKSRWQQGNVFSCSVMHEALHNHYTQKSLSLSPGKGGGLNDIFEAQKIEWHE
pEC50: −log10 of the molar value.
Reported metric: pEC50

• CD3B2089 N106I (scFv) scFv: QVQLVQSGAEVKKPGSSVKVSCKASGYTFTRSTMHWVRQAPGQGLEWMGYINPSSAYTNYAQKFQGRVTLTADKSTSTAYMELSSLRSEDTAVYYCASPQVHYDYIGFPYWGQGTLVTVSSGGSEGKSSGSGSESKSTGGSEIVLTQSPATLSASPGERVTLSCSASSSVSYMNWYQQKPGQAPRRWIYDSSKLASGVPARFSGSGSGRDYTLTISSLEPEDFAVYYCQQWSRNPPTFGGGTKVEIK = 7.75
• CD3B2089 N106L (scFv) scFv: QVQLVQSGAEVKKPGSSVKVSCKASGYTFTRSTMHWVRQAPGQGLEWMGYINPSSAYTNYAQKFQGRVTLTADKSTSTAYMELSSLRSEDTAVYYCASPQVHYDYLGFPYWGQGTLVTVSSGGSEGKSSGSGSESKSTGGSEIVLTQSPATLSASPGERVTLSCSASSSVSYMNWYQQKPGQAPRRWIYDSSKLASGVPARFSGSGSGRDYTLTISSLEPEDFAVYYCQQWSRNPPTFGGGTKVEIK = 7.51
• CD3B2089 N106R (scFv) scFv: QVQLVQSGAEVKKPGSSVKVSCKASGYTFTRSTMHWVRQAPGQGLEWMGYINPSSAYTNYAQKFQGRVTLTADKSTSTAYMELSSLRSEDTAVYYCASPQVHYDYRGFPYWGQGTLVTVSSGGSEGKSSGSGSESKSTGGSEIVLTQSPATLSASPGERVTLSCSASSSVSYMNWYQQKPGQAPRRWIYDSSKLASGVPARFSGSGSGRDYTLTISSLEPEDFAVYYCQQWSRNPPTFGGGTKVEIK = 7.95
• CD3B2089 N106F (scFv) scFv: QVQLVQSGAEVKKPGSSVKVSCKASGYTFTRSTMHWVRQAPGQGLEWMGYINPSSAYTNYAQKFQGRVTLTADKSTSTAYMELSSLRSEDTAVYYCASPQVHYDYFGFPYWGQGTLVTVSSGGSEGKSSGSGSESKSTGGSEIVLTQSPATLSASPGERVTLSCSASSSVSYMNWYQQKPGQAPRRWIYDSSKLASGVPARFSGSGSGRDYTLTISSLEPEDFAVYYCQQWSRNPPTFGGGTKVEIK = 7.99

src = patent US20250145711A1
